Data origin: paper PMC3199943

biological target: TbINO1 (Trypanosoma brucei brucei, UniProt Q5QQ46); test: biochemical; assay type: binding; details: read-out: Tb Ino1 Tm Shift [˚C]
Sequence (Q5QQ46 whole entry): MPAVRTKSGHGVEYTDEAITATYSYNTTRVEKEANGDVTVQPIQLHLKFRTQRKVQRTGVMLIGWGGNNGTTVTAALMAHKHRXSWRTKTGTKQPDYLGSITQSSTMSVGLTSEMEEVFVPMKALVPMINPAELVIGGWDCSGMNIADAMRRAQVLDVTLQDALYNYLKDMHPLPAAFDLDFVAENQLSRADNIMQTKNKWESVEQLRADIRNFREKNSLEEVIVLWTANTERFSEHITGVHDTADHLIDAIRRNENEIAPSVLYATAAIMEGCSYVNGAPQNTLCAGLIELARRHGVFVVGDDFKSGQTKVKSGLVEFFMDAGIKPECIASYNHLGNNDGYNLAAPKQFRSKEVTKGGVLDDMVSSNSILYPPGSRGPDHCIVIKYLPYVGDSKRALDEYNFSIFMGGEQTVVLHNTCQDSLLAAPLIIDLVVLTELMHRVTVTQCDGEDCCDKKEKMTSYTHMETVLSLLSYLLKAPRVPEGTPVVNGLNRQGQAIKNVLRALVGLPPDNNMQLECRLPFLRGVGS
# ΔTm at 1000 µM per entry

Compound | ΔTm at 1000 µM
Cc1nc(C#N)cs1 [compound 67, 2‐methyl‐1,3‐thiazole‐4‐carbonitrile] | 0.01 °C
O=C(O)CCc1cccs1 [compound 237, 3‐(2‐thienyl)propanoic acid] | 0.22 °C
COC(=O)C1NCCS1 (stereo not drawn) [compound 44] | 0.11 °C
Oc1noc2ccccc12 [compound 112, benzo[d]isoxazol‐3‐ol] | 0.23 °C
O=C(O)c1ccnc2ccccc12 [compound 368, quinoline‐4‐carboxylic acid] | 0.33 °C
Cc1cc(C(=O)O)c(-c2ccccc2)o1 [compound 635, 5‐methyl‐2‐phenyl‐3‐furoic acid] | 0.38 °C
Cc1noc(C)c1C#N [compound 53, 3,5‐dimethyl‐4‐isoxazolecarbonitrile] | 0.52 °C
Cc1ccc(N)nc1 [compound 16, 5‐methylpyridin‐2‐amine] | 0.12 °C
Cn1nccc1N [compound 7, 1‐methyl‐1H‐pyrazol‐5‐ylamine] | 0.12 °C
